These measurements were taken from patent US20250163059A1.

I'd appreciate it if you could supply IC50 values for the items below.
target: catalytic domain (JH1) of JAK2 protein (Homo sapiens, UniProt O60674); construct: phosphorylated on the tyrosine residue by catalytic domain (JH1) of JAK2 protein; experiment: JAK2 (JH1) Enzymatic Assay at ATP=Km (30 μM), TR-FRET; details: 30 μM ATP (=Km), 60 min at 25° C., read-out: V617F ENZ 30 μM
Sequence (O60674 849-1124 limits assumed): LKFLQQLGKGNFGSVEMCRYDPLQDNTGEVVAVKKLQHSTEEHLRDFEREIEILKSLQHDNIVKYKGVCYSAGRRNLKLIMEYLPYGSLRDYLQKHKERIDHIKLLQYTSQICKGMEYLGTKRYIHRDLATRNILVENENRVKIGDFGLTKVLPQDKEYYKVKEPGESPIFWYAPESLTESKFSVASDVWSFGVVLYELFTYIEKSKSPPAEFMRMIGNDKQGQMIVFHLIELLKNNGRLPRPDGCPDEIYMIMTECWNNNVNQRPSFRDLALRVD

Any idea what IC50 came out for `CNc1ncc(-c2cccc(-c3cnn(C4CN(Cc5cccc(S(C)(=O)=O)n5)C4)c3)c2OC)c2cc(NC(=O)C3CC3)ncc12` on catalytic domain (JH1) of JAK2 protein (Homo sapiens, UniProt O60674)?
> 1000 nM

Quick one: give me IC50 for each item below, same order please.
1. CNc1ncc(-c2cccc(-c3cnn(C4CN(CC56CCCC(C(=O)N(C)C)(C5)C6)C4)c3)c2OC)c2cc(NC(=O)C3CC3)ncc12
2. CNc1ncc(-c2cccc(-c3cnn(C4CN(Cc5cccc(C(=O)N(C)C6CC6)n5)C4)c3)c2OC)c2cc(NC(=O)C3CC3)nnc12
3. CNc1ncc(-c2cccc(-c3cnn(C4CCN(Cc5ccccn5)CC4)c3)c2OC)c2cc(NC(=O)C3CC3)ncc12

1: > 1000 nM; 2: > 1000 nM; 3: > 1000 nM

Quick one: give me IC50 for each item below, same order please.
1. COc1c(-c2cnn(C3CN(Cc4cccc(C(=O)N5CCCC5)n4)C3)c2)cccc1-c1cnc(N)c2cnc(NC(=O)C3CC3)cc12
2. CNc1ncc(-c2cccc(-c3ccc(C(=O)N(C)Cc4ccccn4)nc3)c2OC)c2cc(NC(=O)C3CC3)ncc12
3. COC(=O)c1cccc(CN2CC(n3cc(-c4cccc(-c5cnc(NC(C)=O)c6cnc(NC(=O)C7CC7)cc56)c4OC)cn3)C2)n1
4. CNc1ncc(-c2cccc(-c3cnn(C4CN(Cc5cccc(C(=O)N(C)C)n5)C4)c3)c2OC)c2cc(NC(=O)C3CC3)nnc12

1. 10 to 100 nM
2. > 1000 nM
3. > 1000 nM
4. > 1000 nM

Quick one: give me IC50 for each item below, same order please.
1. COc1c(-c2cnn(C3CN(Cc4cccc(C(=O)N(C)CC(F)(F)F)n4)C3)c2)cccc1-c1cnc(N)c2cnc(NC(=O)C3CC3)cc12
2. CNc1ncc(-c2cccc(-c3cnn(C4CN(Cc5cccc(C(=O)N6CCCC6)n5)C4)c3)c2OC)c2cc(NC(=O)C3CC3)ncc12
3. COc1c(-c2cnn(C3CN(Cc4cccc(C(=O)N5CCOCC5)n4)C3)c2)cccc1-c1cnc(N)c2cnc(NC(=O)C3CC3)cc12
4. CNc1ncc(-c2cccc(-c3cnn(C4CN(Cc5cccc(C(=O)N(C)CC(F)(F)F)n5)C4)c3)c2OC)c2cc(NC(=O)C3CC3)nnc12

1. 10 to 100 nM
2. > 1000 nM
3. 100 to 500 nM
4. > 1000 nM

Any idea what IC50 came out for `CNc1ncc(-c2cccc(-c3cnn(C4CN(Cc5cccc(C(=O)N(C)C)n5)C4)c3)c2OC)c2cc(NC(=O)C3CC3)ncc12` on catalytic domain (JH1) of JAK2 protein (Homo sapiens, UniProt O60674)?
> 1000 nM

----------
target: pseudo-kinase domain (JH2) of human V617F mutant JAK2 (Homo sapiens, UniProt O60674, F794H/V617F/W659A/W777A); construct: pseudo-kinase domain (JH2, amino-acids 536-812 with 3 surface mutations W659A, W777A, F794H); experiment: JAK2 LanthaScreen JH2-V617F Binding Assay; details: 50 nM Fluorescent JAK2-JH2 Tracer, 1 hour at 25° C., read-out: JH2 BIND V617F
Sequence (O60674 536-812 V617F/W659A/W777A/F794H): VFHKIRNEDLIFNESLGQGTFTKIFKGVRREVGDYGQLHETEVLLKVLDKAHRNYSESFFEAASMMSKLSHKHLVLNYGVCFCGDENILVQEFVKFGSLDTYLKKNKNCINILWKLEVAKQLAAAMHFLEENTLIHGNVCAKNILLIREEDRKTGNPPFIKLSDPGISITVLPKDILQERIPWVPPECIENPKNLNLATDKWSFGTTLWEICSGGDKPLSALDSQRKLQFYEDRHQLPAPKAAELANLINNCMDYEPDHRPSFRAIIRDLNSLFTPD
I'd appreciate it if you could supply IC50 values for the items below.

Below: 8 molecules and their reported IC50.
Look up IC50: `CNc1ncc(-c2cccc(-c3cnn(C4CN(Cc5cccc(S(C)(=O)=O)n5)C4)c3)c2OC)c2cc(NC(=O)C3CC3)ncc12`
≤ 0.01 µM

Look up IC50: CNc1ncc(-c2cccc(-c3cnn(C(C)C(=O)O)c3)c2OC)c2cc(NC(=O)C3CC3)ncc12 (stereo not shown)
0.01 to 0.1 µM

Look up IC50: `CNc1ncc(-c2cccc(-c3cnn(C4CN(Cc5cccc(C(=O)N6CCCC6)n5)C4)c3)c2OC)c2cc(NC(=O)C3CC3)ncc12`
≤ 0.01 µM

Look up IC50: `COc1c(-c2cnn(C3CN(Cc4cccc(C(=O)N5CCC(F)(F)C5)n4)C3)c2)cccc1-c1cnc(N)c2cnc(NC(=O)C3CC3)cc12`
≤ 0.01 µM

Look up IC50: `COc1c(-c2cnn(C3CN(Cc4cccc(C(=O)N(C)CC(F)(F)F)n4)C3)c2)cccc1-c1cnc(N)c2cnc(NC(=O)C3CC3)cc12`
≤ 0.01 µM

Look up IC50: `CNc1ncc(-c2cccc(-c3cnn(C4CCN(Cc5ccccn5)CC4)c3)c2OC)c2cc(NC(=O)C3CC3)ncc12`
0.01 to 0.1 µM

Look up IC50: `COc1c(-c2cnn(C3CN(Cc4cccc(C(=O)N(C)C)n4)C3)c2)cccc1-c1cnc(N)c2cnc(NC(=O)C3CC3)cc12`
≤ 0.01 µM

Look up IC50: `COc1c(-c2cnn(C3CN(Cc4cccc(C(=O)N5CCCC5)n4)C3)c2)cccc1-c1cnc(N)c2cnc(NC(=O)C3CC3)cc12`
≤ 0.01 µM

Quick one: give me IC50 for each item below, same order please.
1. CNc1ncc(-c2cccc(-c3cnn(C4CN(Cc5cccc(C(=O)N(C)C6CC6)n5)C4)c3)c2OC)c2cc(NC(=O)C3CC3)nnc12
2. CNc1ncc(-c2cccc(-c3cnn(C4CN(Cc5cccc(C(=O)N(C)CC6CC6)n5)C4)c3)c2OC)c2cc(NC(=O)C3CC3)nnc12
3. CNc1ncc(-c2cccc(-c3ccc(C(=O)N(C)Cc4ccccn4)nc3)c2OC)c2cc(NC(=O)C3CC3)ncc12
4. CNc1ncc(-c2cccc(-c3cnn(C4CN(Cc5cccc(C(=O)N(C)C6CC6)n5)C4)c3)c2OC)c2cc(NC(=O)C3CC3)ncc12
5. CNc1ncc(-c2cccc(-c3cnn(C4CN(Cc5cccc(C(=O)N(C)C)n5)C4)c3)c2OC)c2cc(NC(=O)C3CC3)nnc12

1. ≤ 0.01 µM
2. ≤ 0.01 µM
3. 0.01 to 0.1 µM
4. ≤ 0.01 µM
5. ≤ 0.01 µM
